pIC50: −log10 of the molar value.
What follows is a record of pIC50 for Seed linoleate 13S-lipoxygenase-1 (Glycine max).

Structure: COC(=O)c1c(C)oc(-c2ccccc2)c1CC(=O)c1ccccc1
pIC50: 4.11
--
Structure: COC(=O)c1c(C)oc(-c2ccc(C)cc2)c1CC(=O)c1ccc(C)cc1
pIC50: 4.66
--
Structure: COC(=O)c1c(C)oc(-c2ccc(Br)cc2)c1CC(=O)c1ccc(Br)cc1
pIC50: 4.89

---

Quick reference for pKi among some molecules
Target entity: Lipoxygenase (Soybean, UniProt B3TDK4)
Sequence (B3TDK4 whole entry): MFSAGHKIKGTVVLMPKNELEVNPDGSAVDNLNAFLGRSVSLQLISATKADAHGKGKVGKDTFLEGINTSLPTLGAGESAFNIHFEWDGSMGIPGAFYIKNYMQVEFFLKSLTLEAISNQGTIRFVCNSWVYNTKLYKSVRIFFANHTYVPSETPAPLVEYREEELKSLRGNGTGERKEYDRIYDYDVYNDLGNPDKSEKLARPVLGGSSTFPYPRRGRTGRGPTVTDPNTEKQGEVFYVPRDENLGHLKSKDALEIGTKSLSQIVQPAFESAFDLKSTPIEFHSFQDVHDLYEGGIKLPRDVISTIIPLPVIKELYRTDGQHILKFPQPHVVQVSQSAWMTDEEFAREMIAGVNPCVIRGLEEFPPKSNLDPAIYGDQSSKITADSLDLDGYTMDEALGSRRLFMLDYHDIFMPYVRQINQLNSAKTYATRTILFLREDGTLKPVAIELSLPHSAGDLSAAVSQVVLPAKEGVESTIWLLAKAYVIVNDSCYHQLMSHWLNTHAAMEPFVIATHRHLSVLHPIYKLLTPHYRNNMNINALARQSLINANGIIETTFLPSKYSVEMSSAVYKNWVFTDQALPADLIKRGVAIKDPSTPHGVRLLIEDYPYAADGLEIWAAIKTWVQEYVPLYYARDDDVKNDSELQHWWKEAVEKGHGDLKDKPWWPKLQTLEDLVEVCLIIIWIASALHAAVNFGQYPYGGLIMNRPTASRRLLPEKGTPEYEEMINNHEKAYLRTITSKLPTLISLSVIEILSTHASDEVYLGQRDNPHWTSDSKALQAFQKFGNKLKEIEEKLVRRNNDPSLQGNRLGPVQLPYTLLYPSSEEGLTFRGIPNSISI
pKi: −log10 of the molar value.

Structure: CCOC(=O)c1c(C)oc(-c2ccc(Br)cc2)c1CC(=O)c1ccc(Br)cc1
pKi: 6.85
--
Structure: COC(=O)c1c(C)oc(-c2ccc(Br)cc2)c1CC(=O)c1ccc(Br)cc1
pKi: 7.15
--
Structure: COC(=O)c1c(C)oc(-c2ccc(C)cc2)c1CC(=O)c1ccc(C)cc1
pKi: 6.75
--
Structure: COC(=O)c1c(C)oc(-c2ccc(Cl)cc2)c1CC(=O)c1ccc(Cl)cc1
pKi: 6.50
--
Structure: CCOC(=O)c1c(C)oc(-c2ccc(C)cc2)c1CC(=O)c1ccc(C)cc1
pKi: 6.61
--
Structure: CCOC(=O)c1c(C)oc(-c2ccc(Cl)cc2)c1CC(=O)c1ccc(Cl)cc1
pKi: 6.46

Provenance of the data: BindingDB's records for doi:10.1016/j.bioorg.2017.01.016
